Target: human M4 receptor (Homo sapiens, UniProt P08173)
Sequence (P08173 1-479): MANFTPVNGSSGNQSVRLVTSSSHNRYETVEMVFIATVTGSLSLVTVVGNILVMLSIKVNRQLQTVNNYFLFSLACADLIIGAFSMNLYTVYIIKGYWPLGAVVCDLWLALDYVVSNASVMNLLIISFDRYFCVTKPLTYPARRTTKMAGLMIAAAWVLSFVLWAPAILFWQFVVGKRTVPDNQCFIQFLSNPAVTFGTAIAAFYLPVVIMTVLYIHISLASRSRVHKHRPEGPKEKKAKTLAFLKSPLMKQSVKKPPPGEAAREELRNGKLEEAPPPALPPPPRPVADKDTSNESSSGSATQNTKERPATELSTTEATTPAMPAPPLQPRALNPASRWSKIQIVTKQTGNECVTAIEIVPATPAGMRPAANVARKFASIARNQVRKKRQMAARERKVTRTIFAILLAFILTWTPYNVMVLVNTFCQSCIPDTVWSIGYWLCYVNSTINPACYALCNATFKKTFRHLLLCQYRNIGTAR
Test: M4 GTPγS PAM assay
Details: membranes of CHO-K1 cells stably expressing human M4; EC20 acetylcholine 40 nM; 35S-GTP
Method: The M4 GTPγS PAM method was used. Membranes were prepared for GTPgS binding assays from CHO-K1 cells stably expressing human M4 receptor. Briefly, cells were grown in 5-layer cell culture flasks. Cells were washed with 50 mL of PBS and then dissociated with 0.05% trypsin. Dissociated cells were then collected by centrifugation at 650×g for 8 minutes at 4° C. […] Membrane protein concentration is determined by BCA protein assay (Promega, Madison, WI) according to Promega guidelines. […]
pEC50: −log10 of the molar value.

compound	pEC50
COc1nc(C#N)nc2c1C(C)N(C(=O)CC1CN(c3ccnc(C4CC4)c3)C1)C2 (single isomer, unassigned) [Compound I-11]	≤ 5.70
COc1nc(C)nc2c1C(C)N(C(=O)CC1CN(c3cccc(C#N)c3)C1)C2 (single isomer, unassigned) [Compound I-55]	≤ 5.70
COc1nc2c(c(OC(F)F)n1)CN(C(=O)CC1CN(c3cccnc3)C1)C2	≤ 5.70
Cc1nc2c(c(OC(C)C)n1)CN(C(=O)CC1CN(c3ccnc(C(F)(F)F)c3)C1)C2	≤ 5.70
COc1nc(C#N)nc2c1C(C)N(C(=O)CC1CN(c3ccnc(OC(F)F)c3)C1)C2 (single isomer, unassigned)	≥ 7.00
COc1nc2c(c(OC)n1)C(C)N(C(=O)CC1CN(c3ccnc(C(F)(F)F)c3)C1)C2 (racemic) [Compound I-67]	≥ 7.00
COc1nc(C#N)nc2c1C(C)N(C(=O)CC1CN(c3cccnc3)C1)C2 (single isomer, unassigned) [Compound I-7]	≤ 5.70
COc1nc(C#N)nc2c1C(C)N(C(=O)CC1CN(c3cnnc(C(F)(F)F)c3)C1)C2 (single isomer, unassigned) [Compound I-25]	6.30 to 7.00
COc1nc(C#N)nc2c1C(C)N(C(=O)CC1CN(c3ncns3)C1)C2 (single isomer, unassigned)	≤ 5.70
COc1nc(C)nc2c1C(C)N(C(=O)CC1CN(c3ccnc(C(F)(F)F)c3)C1)C2 (racemic) [Compound I-51]	6.30 to 7.00
COc1nc(C)nc2c1C(C)N(C(=O)CC1CN(c3ccc(C#N)cc3)C1)C2 (single isomer, unassigned) [Compound I-56]	6.30 to 7.00
COc1nc(C#N)nc2c1C(C)N(C(=O)CC1CN(c3ccncc3F)C1)C2 (single isomer, unassigned)	6.30 to 7.00
Cc1nc2c(c(OC3CC3)n1)CN(C(=O)CC1CN(c3cccnc3)C1)C2	≤ 5.70
COc1nc(C#N)nc2c1C(C)N(C(=O)CC1CN(c3ccc(C4CC4)c(F)c3)C1)C2 (single isomer, unassigned) [Compound I-21]	≤ 5.70
